Measured values drawn from patent EP4700027A1 for this set.

# procedure_summary: Influencing factor stability study on crystal forms (light, high temperature, high humidity, 30 days)
# Assay type: physicochemical
# conditions: Initial, 0 days
measurement_label: Purity (%)
Give bare numbers, in %.

Solved entries:
C=CC(=O)N1CCN2C(=O)c3cc(F)c(-c4ccc(F)c5sc(N)c(C#N)c45)c4c(Cl)nn(c34)CC[C@H]2C1 [crystal form H] : 98.3
C=CC(=O)N1CCN2C(=O)c3cc(F)c(-c4ccc(F)c5sc(N)c(C#N)c45)c4c(Cl)nn(c34)CC[C@H]2C1 [crystal form G] : 98.5
C=CC(=O)N1CCN2C(=O)c3cc(F)c(-c4ccc(F)c5sc(N)c(C#N)c45)c4c(Cl)nn(c34)CC[C@H]2C1 [crystal form F] : 97.9
C=CC(=O)N1CCN2C(=O)c3cc(F)c(-c4ccc(F)c5sc(N)c(C#N)c45)c4c(Cl)nn(c34)CC[C@H]2C1 [crystal form L] : 99.1
C=CC(=O)N1CCN2C(=O)c3cc(F)c(-c4ccc(F)c5sc(N)c(C#N)c45)c4c(Cl)nn(c34)CC[C@H]2C1 [crystal form C] : 98.2

**Query** Entry under review: C=CC(=O)N1CCN2C(=O)c3cc(F)c(-c4ccc(F)c5sc(N)c(C#N)c45)c4c(Cl)nn(c34)CC[C@H]2C1 [crystal form M] . Reported Purity (%)?
**Result** 99.2

---

# procedure_summary: Influencing factor stability study on crystal forms (light, high temperature, high humidity, 30 days)
# Assay type: physicochemical
# conditions: 92.5% RH, 7 days
measurement_label: Purity (%)
Give bare numbers, in %.

C=CC(=O)N1CCN2C(=O)c3cc(F)c(-c4ccc(F)c5sc(N)c(C#N)c45)c4c(Cl)nn(c34)CC[C@H]2C1 [crystal form M] : 99.2
C=CC(=O)N1CCN2C(=O)c3cc(F)c(-c4ccc(F)c5sc(N)c(C#N)c45)c4c(Cl)nn(c34)CC[C@H]2C1 [crystal form H] : 98.3
C=CC(=O)N1CCN2C(=O)c3cc(F)c(-c4ccc(F)c5sc(N)c(C#N)c45)c4c(Cl)nn(c34)CC[C@H]2C1 [crystal form G] : 98.5

Next item in the queue.
**Query** GET /values?readout=Purity (%)&item= C=CC(=O)N1CCN2C(=O)c3cc(F)c(-c4ccc(F)c5sc(N)c(C#N)c45)c4c(Cl)nn(c34)CC[C@H]2C1 [crystal form L]
**Result** 99.1
